- systemName: HiBit-KRAS^G12C (Homo sapiens, UniProt P01116, G12C)
- Sequence (P01116 1-186 isoform P01116-2 G12C limits assumed): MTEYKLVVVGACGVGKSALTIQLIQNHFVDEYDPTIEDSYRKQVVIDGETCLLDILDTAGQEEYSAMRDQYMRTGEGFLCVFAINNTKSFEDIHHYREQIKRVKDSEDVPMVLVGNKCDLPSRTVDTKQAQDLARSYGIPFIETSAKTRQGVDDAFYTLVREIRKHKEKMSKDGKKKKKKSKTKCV
- protocolNotes: HiBit degradation assay in MiaPaCa-2 HiBit-KRas^G12C cells
- Assay type: cell-based
- runParameters: MIA PaCa-2, MiaPaCa-2 HiBit-KRas^G12C cells; 0.1% DMSO; 24 hours; maximum degradation; read-out: KRas^G12C-HiBiT (MiaPaCa; 0.1% DMSO) DMax
endpointName: Dmax

Look over these answered cases.
| compound | result |
| --- | --- |
| C=CC(=O)N1CCN(c2nc(O[C@H](C)CN3CCC(CCC(=O)N[C@H](C(=O)N4C[C@H](O)C[C@H]4C(=O)N[C@@H](C)c4ccc(-c5scnc5C)cc4)C(C)(C)C)CC3)nc3c(F)c(-c4cc(O)cc5ccccc45)c(Cl)cc23)CC1 | < 35% |
| C=CC(=O)N1CCN(c2nc(O[C@H](C)CN3CCC(OCCOCC(=O)N[C@H](C(=O)N4C[C@H](O)C[C@H]4C(=O)N[C@@H](C)c4ccc(-c5scnc5C)cc4)C(C)(C)C)CC3)nc3c(F)c(-c4cc(O)cc5ccccc45)c(Cl)cc23)CC1 (atropisomer, axis not shown) | 35 to 70% |
| C=CC(=O)N1C[C@H](C)N(c2nc(OCCN3CCC(COCC(=O)N[C@H](C(=O)N4C[C@H](O)C[C@H]4C(=O)N[C@@H](C)c4ccc(-c5scnc5C)cc4)C(C)(C)C)CC3)nc3c(F)c(-c4cc(O)cc5ccccc45)c(Cl)cc23)C[C@H]1C | < 35% |
| C=CC(=O)N1CCN(c2nc(O[C@H](C)CN3CCC(COCC(=O)N[C@H](C(=O)N4C[C@H](O)C[C@H]4C(=O)N[C@@H](C)c4ccc(-c5scnc5C)cc4)C(C)(C)C)CC3)nc3c2CCN(c2cc(O)cc4ccccc24)C3)C[C@@H]1CC#N | 35 to 70% |
| C=CC(=O)N1CCN(c2nc(O[C@H](C)CN3CCC(OCCOc4cc(-c5scnc5C)ccc4CNC(=O)[C@@H]4C[C@@H](O)CN4C(=O)[C@H](c4cc(C)no4)C(C)C)CC3)nc3c(F)c(-c4cc(O)cc5ccccc45)c(Cl)cc23)CC1 | < 35% |
| C=CC(=O)N1CCN(c2nc(O[C@H](C)CN3CCC(COCC(=O)N[C@H](C(=O)N4C[C@H](O)C[C@H]4C(=O)N[C@@H](C)c4ccc(-c5scnc5C)cc4)C(C)(C)C)CC3)nc3c(F)c(-c4cc(O)cc5ccccc45)c(Cl)cc23)CC1 | 35 to 70% |
| C=CC(=O)N1CCN(c2nc(OCCN3CCC(CCOCC(=O)N[C@H](C(=O)N4C[C@H](O)C[C@H]4C(=O)N[C@@H](C)c4ccc(-c5scnc5C)cc4)C(C)(C)C)CC3)nc3c(F)c(-c4cc(O)cc5ccccc45)c(Cl)cc23)CC1 | < 35% |
| C=CC(=O)N1CCN(c2nc(OCCN3CCC(OCCOc4cc([C@@H](C(=O)N5C[C@H](O)C[C@H]5C(=O)N[C@@H](C)c5ccc(-c6scnc6C)cc5)C(C)C)on4)CC3)nc3c(F)c(-c4cc(O)cc5ccccc45)c(Cl)cc23)C[C@@H]1CC#N | < 35% |

Request - read-out Dmax | tested on HiBit-KRAS^G12C (Homo sapiens, UniProt P01116, G12C) | compound C=CC(=O)N1CCN(c2nc(OCCN3CCC(OCCOc4cc([C@H](C(=O)N5C[C@H](O)C[C@H]5C(=O)N[C@@H](C)c5ccc(-c6scnc6C)cc5)C(C)C)on4)CC3)nc3c(F)c(-c4cc(O)cc5ccccc45)c(Cl)cc23)C[C@@H]1CC#N (single isomer, unassigned)
> 70%

Next record, please: C=CC(=O)N1CCN(c2nc(O[C@H](C)CN3CCC(OCCOCC(=O)N[C@H](C(=O)N4C[C@@H](O)C[C@H]4C(=O)N[C@@H](C)c4ccc(-c5scnc5C)cc4)C(C)(C)C)CC3)nc3c(F)c(-c4cc(O)cc5ccccc45)c(Cl)cc23)CC1
35 to 70%

What about C=C(F)C(=O)N1CCN(c2nc(OCCN3CCC(OCCOc4cc([C@H](C(=O)N5C[C@H](O)C[C@H]5C(=O)N[C@@H](C)c5ccc(-c6scnc6C)cc5)C(C)C)on4)CC3)nc3c(F)c(-c4cc(O)cc5ccccc45)c(Cl)cc23)C[C@@H]1CC#N ?
35 to 70%

Thanks! And C=CC(=O)N1CCN(c2nc(O[C@H](C)CN3CCC(OCCOCC(=O)N[C@H](C(=O)N4C[C@H](O)C[C@H]4C(=O)N[C@@H](C)c4ccc(-c5scnc5C)cc4)C(C)(C)C)CC3)nc3c2CCN(c2cc(O)cc4ccccc24)C3)C[C@@H]1CC#N ?
< 35%

Next compound up: C=CC(=O)N1CCN(c2nc(O[C@H](C)CN3CCC(CCOCC(=O)N[C@H](C(=O)N4C[C@H](O)C[C@H]4C(=O)N[C@@H](C)c4ccc(-c5scnc5C)cc4)C(C)(C)C)CC3)nc3c(F)c(-c4cc(O)cc5ccccc45)c(Cl)cc23)CC1
< 35%

Also need C=CC(=O)N1CCN(c2nc(OCCCN3CCC(OCC(=O)N[C@H](C(=O)N4C[C@H](O)C[C@H]4C(=O)N[C@@H](C)c4ccc(-c5scnc5C)cc4)C(C)(C)C)CC3)nc3c(F)c(-c4cc(O)cc5ccccc45)c(Cl)cc23)CC1 , thanks.
< 35%

Same again, this time with C=CC(=O)N1CCN(c2nc(O[C@H](C)CN3CCC(COc4cc([C@@H](C(=O)N5C[C@H](O)C[C@H]5C(=O)N[C@@H](C)c5ccc(-c6scnc6C)cc5)C(C)C)on4)CC3)nc3c(F)c(-c4cc(O)cc5ccccc45)c(Cl)cc23)CC1
35 to 70%
